assay_metric: logP
Numbers only.

Worked cases, logP given:
compound	logP
c1ncncn1	-0.73
O=C(NC(CO)C(O)c1ccc([N+](=O)[O-])cc1)C(F)F (configuration not stated)	0.42
O=C(O)Cc1ccc(F)cc1	1.55
CC1(C)SC2C(NC(=O)C(O)c3ccccc3)C(=O)N2C1C(=O)O (configuration not stated)	1.4

Answer for every listed entry: what is its logP? The entries follow.
1. CC(C)Sc1nnc(C(C)C)c(=O)n1N
2. c1ccc(-c2ccncc2)cc1
3. COC(=O)C(C#N)=NNc1cc(C(F)(F)F)ccc1[N+](=O)[O-]

*A*
2.06
2.59
3.44

====

Assign class by logP: not lower than 2 means Met; lower than 2 means Not met.

compound	group_label
c1ccc2c(c1)Nc1ccccc1S2	Met
O=[N+]([O-])c1cncn1CCN1CCOCC1	Not met
CCOC(=O)C(C#N)=NNc1ccc(Cl)c(Cl)c1	Met
O=C(O)COc1ccc(F)cc1	Not met
CCCCC(CC)CN (centres undefined)	Met
O=C(O)CCCCCCCC(=O)O	Not met
C1CCNC1	Not met
C1CN2CCC1CC2	Not met
C1CC1	Not met
CC/C(=C/c1ccccc1)[N+](=O)[O-]	Met

*Q* Please indicate if the recorded logP for `COc1cc(C(=O)NN)ccn1` meets or exceeds 2.
*A* Not met

*Q* Please indicate if the recorded logP for `CN(C)CCN1C(=O)c2ccccc2N(C)c2ccccc21` meets or exceeds 2.
*A* Met

*Q* Please indicate if the recorded logP for `Nc1ccccc1C(=O)O` meets or exceeds 2.
*A* Not met

*Q* Please indicate if the recorded logP for `Oc1c(Br)cc(Br)c(O)c1Br` meets or exceeds 2.
*A* Met
